# experimentalTarget: Biotinylated CoV2 Spike ECD PreS-AVI protein (SARS-CoV-2, UniProt P0DTC2 14-1208)
# assayComment: Octet binning; competitor 1A11
valueKind: binning response
// keep it numeric: no unit symbol after the value

Known binning response results, listed for orientation:
binder	binning response
15H7 VHH-Fc (Fc fusion) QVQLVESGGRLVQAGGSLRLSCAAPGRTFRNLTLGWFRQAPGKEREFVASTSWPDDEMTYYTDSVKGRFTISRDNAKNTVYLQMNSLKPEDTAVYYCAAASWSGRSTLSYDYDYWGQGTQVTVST	0.09
7A9 VHH-Fc (Fc fusion) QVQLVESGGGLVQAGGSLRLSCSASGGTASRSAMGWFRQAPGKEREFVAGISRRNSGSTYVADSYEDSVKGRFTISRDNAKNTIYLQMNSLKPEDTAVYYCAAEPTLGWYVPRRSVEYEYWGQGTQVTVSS	0.32
5A6 VHH-Fc (Fc fusion) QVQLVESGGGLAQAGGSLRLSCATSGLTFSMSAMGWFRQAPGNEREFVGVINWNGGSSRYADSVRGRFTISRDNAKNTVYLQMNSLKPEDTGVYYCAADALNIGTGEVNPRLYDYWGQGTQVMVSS	0.09
10B8 VHH-Fc (Fc fusion) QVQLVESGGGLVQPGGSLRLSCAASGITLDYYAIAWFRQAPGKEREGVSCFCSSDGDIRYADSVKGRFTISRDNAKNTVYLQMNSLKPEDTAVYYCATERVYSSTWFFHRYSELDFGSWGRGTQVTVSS	0.1
8E9 VHH-Fc (Fc fusion) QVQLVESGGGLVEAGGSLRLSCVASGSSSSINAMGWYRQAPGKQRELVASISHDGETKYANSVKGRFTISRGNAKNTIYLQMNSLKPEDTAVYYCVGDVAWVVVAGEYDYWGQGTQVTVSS	0.09
15H1 VHH-Fc (Fc fusion) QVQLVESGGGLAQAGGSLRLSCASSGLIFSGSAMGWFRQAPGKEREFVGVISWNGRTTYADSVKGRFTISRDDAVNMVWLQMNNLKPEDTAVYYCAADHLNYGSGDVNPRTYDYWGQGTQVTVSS	0.08
1A11 VHH-Fc (Fc fusion) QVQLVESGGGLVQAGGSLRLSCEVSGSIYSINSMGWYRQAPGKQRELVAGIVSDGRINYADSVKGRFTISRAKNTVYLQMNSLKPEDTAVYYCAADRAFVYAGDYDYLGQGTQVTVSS	0.1
9B2 VHH-Fc (Fc fusion) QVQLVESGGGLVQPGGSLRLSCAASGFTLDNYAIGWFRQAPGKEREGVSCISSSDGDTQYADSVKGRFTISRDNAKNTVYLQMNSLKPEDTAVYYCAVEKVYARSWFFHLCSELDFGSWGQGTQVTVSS	0.1

As a next step, examine the binder that follows.
**Q:** Endpoint output: binning response of 11F8 VHH-Fc (Fc fusion) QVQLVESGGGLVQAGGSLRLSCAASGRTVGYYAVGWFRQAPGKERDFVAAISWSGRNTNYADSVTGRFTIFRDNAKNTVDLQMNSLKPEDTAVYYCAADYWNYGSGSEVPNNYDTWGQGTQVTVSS . Value?
**A:** 0.12
